Measured residual activity, listed per entry for reference.
Molecular target: MAPK11 (human) (UniProt Q15759)
Sequence (Q15759 whole entry, looked up): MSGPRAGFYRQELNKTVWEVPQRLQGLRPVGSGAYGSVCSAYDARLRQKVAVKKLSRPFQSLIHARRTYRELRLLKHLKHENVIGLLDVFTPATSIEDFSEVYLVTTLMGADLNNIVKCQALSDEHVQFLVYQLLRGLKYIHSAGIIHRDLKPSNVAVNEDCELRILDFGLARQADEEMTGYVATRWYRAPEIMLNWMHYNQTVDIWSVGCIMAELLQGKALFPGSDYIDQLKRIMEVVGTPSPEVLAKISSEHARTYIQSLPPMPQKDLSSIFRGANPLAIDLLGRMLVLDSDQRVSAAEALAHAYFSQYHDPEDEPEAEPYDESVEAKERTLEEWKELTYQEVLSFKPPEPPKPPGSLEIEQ
Experiment: radiometric filter-binding kinase assay, Kinase HotSpot
Settings: compound 0.5 µM; ATP 10 µM
Kindly provide the numeric value in % only, without the unit symbol.

Known residual activity results, listed for orientation:
- Molecule: "O=C(NC(NC(=S)Nc1ccc(F)c([N+](=O)[O-])c1)C(Cl)(Cl)Cl)C(c1ccccc1)c1ccccc1 (centres undefined)"
  Measured attribute: "residual activity"
  Measure unit: "%"
  Recorded value: 104
- Molecule: "COc1cc2nccc(Oc3ccc(NC(=S)NC(=O)c4ccccc4C)cc3)c2cc1OC"
  Measured attribute: "residual activity"
  Measure unit: "%"
  Recorded value: 89.3
- Molecule: "O=C1Nc2cc(Br)ccc2/C1=C1/Nc2ccccc2/C1=N\\O"
  Measured attribute: "residual activity"
  Measure unit: "%"
  Recorded value: 99.6

QUERY: Please give the measured residual activity for this molecule: CSc1nc(-c2ccc(F)cc2)c(-c2ccnc(NC(C)c3ccccc3)c2)[nH]1 (centres undefined)
RESULT: 41.7

----------
# reported residual activity; entries follow
Molecular target: UniProt:P34947
Sequence (P34947 whole entry, looked up): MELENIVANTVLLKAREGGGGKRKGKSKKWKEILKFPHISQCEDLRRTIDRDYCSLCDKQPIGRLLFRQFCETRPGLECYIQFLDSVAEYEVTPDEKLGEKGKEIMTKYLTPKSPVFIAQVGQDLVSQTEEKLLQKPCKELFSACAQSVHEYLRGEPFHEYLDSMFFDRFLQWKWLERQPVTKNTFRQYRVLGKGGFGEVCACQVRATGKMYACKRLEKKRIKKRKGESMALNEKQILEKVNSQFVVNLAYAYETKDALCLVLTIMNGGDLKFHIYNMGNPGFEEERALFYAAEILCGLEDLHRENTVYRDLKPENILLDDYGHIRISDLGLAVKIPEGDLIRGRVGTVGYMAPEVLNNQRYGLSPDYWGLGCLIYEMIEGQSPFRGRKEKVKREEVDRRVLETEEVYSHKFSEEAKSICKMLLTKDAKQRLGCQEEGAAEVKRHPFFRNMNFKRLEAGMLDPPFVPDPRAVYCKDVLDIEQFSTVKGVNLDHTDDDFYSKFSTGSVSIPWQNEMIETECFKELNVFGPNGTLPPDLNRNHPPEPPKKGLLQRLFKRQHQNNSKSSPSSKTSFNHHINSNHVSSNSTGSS
Assay: radiometric filter-binding kinase assay, Kinase HotSpot
Details: compound 0.5 µM; ATP 10 µM
Number in %, nothing else.

For orientation, consider the following solved cases.
- Compound: "CSc1nc(-c2ccc(F)cc2)c(-c2ccnc(NC(C)c3ccccc3)c2)[nH]1 (stereo unspecified)"
  Recorded value: 103
- Compound: "O=C(Nc1ccc(Cl)cc1)c1ccccc1NCc1ccncc1"
  Recorded value: 97.3
- Compound: "O=C1Nc2ccccc2/C1=C\\c1c(Cl)[nH]c2ccccc12"
  Recorded value: 109

QUERY: Endpoint output: residual activity of Nc1nc(Nc2ccc(S(N)(=O)=O)cc2)nn1C(=S)Nc1c(F)cccc1F . Value?
RESULT: 75.6

QUERY: Try this compound next: CS(=O)c1ccc(-c2nc(-c3ccc(F)cc3)c(-c3ccncc3)[nH]2)cc1 (stereo unspecified)
RESULT: 104

QUERY: Likewise for NC(=O)c1ccc(N(C(N)=O)c2c(F)cccc2F)nc1-c1ccc(F)cc1F ?
RESULT: 103

QUERY: What do you get for CC(C)(C)c1nc2c3ccc(F)cc3c3c(=O)[nH]ccc3c2[nH]1 ?
RESULT: 72.9

QUERY: Now give it for CC(C)n1cnc2c(Nc3cccc(Cl)c3)nc(NCCO)nc21 too.
RESULT: 99.4

QUERY: Same thing, different compound: O=c1cc(-c2cccc3c2Sc2ccccc2S3)oc(N2CCOCC2)c1
RESULT: 105

QUERY: Same question for Oc1ccc(-c2nc(-c3ccc(F)cc3)c(-c3ccncc3)[nH]2)cc1 please.
RESULT: 104

QUERY: Further, for CC(C)[C@H](CO)Nc1nc(Nc2cccc(Cl)c2)c2ncn(C(C)C)c2n1 ?
RESULT: 101

QUERY: # repeat for COc1cc2nccc(Oc3ccc(NC(=S)NC(=O)c4ccccc4C)cc3)c2cc1OC
RESULT: 98.8

QUERY: Likewise for COc1cc2ncnc(Nc3ccc(F)c(Cl)c3)c2cc1OCCCN1CCOCC1 ?
RESULT: 94.9

QUERY: Now consider C#Cc1cccc(Nc2ncnc3cc(OCCOC)c(OCCOC)cc23)c1 .
RESULT: 100

QUERY: Then this compound: CCN1/C(=C/C(C)=O)Sc2ccc(OC)cc21
RESULT: 108

QUERY: Here is the next compound: O=C1Cc2c([nH]c3ccc([N+](=O)[O-])cc23)-c2ccccc2N1
RESULT: 107

QUERY: Okay, and Cc1cc2ncc(-c3ccccc3)nc2cc1C ?
RESULT: 107

QUERY: Also check O=C(NC(NC(=S)Nc1ccc(F)c([N+](=O)[O-])c1)C(Cl)(Cl)Cl)C(c1ccccc1)c1ccccc1 (stereo unspecified)
RESULT: 105

QUERY: Continue with COc1ccc(-c2cnc3c(-c4ccsc4)cnn3c2)cc1
RESULT: 97.4

QUERY: Entry to check: Nc1n[nH]c2nnc(-c3c(-c4ccccc4)nn4ccccc34)cc12
RESULT: 106

QUERY: Field entry: CCCNC(=O)Nc1ccc(Oc2ncnc3cc(OC)c(OC)cc23)cc1Cl
RESULT: 105

QUERY: // same read-out, input: O=C1Nc2cc(Br)ccc2/C1=C1/Nc2ccccc2/C1=N\O
RESULT: 125

QUERY: Another: Nc1nc(Nc2ccc(S(N)(=O)=O)cc2)nn1C(=O)c1c(F)cccc1F
RESULT: 85.9

QUERY: Next compound up: Cc1ccc(NC(=O)c2ccc(CN3CCN(C)CC3)cc2)cc1Nc1nc(-c2cccnc2)cs1
RESULT: 106

QUERY: How about this compound: O=c1cc(N2CCNCC2)oc2c(-c3ccccc3)cccc12
RESULT: 103

QUERY: Next compound up: Clc1ccc(Nc2nnc(Cc3ccncc3)c3ccccc23)cc1
RESULT: 110

----------
Target: CDK6 CCND3 (human) (UniProt P30281+Q00534)
Sequence (P30281 whole entry, looked up): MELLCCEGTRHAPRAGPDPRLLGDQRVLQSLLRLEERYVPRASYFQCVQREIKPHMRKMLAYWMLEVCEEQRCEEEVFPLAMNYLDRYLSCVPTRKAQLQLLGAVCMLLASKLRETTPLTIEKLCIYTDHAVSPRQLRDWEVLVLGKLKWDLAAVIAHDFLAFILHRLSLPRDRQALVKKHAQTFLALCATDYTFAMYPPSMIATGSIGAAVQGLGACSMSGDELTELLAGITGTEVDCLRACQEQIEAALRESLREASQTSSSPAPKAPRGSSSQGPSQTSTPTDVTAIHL
Sequence (Q00534 whole entry, looked up): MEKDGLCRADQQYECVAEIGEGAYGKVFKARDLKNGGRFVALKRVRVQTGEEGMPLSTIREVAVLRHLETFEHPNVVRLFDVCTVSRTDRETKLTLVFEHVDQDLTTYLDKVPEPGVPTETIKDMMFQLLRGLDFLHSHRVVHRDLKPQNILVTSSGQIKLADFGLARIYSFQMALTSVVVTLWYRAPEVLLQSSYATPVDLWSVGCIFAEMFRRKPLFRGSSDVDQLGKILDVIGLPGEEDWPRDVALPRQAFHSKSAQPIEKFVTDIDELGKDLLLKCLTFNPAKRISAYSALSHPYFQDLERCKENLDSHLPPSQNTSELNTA
Test: radiometric filter-binding kinase assay, Kinase HotSpot
Conditions: compound 0.5 µM; ATP 10 µM
# residual activity >= 90% gives t, anything below gives f

QUERY: Could you verify whether the entry COc1cc2nccc(Oc3ccc(NC(=S)NC(=O)c4ccccc4C)cc3)c2cc1OC shows residual activity of no less than 90%?
RESULT: t

QUERY: And O=c1cc(-c2cccc3c2Sc2ccccc2S3)oc(N2CCOCC2)c1 ?
RESULT: t

QUERY: Would you mind doing O=C(NC(NC(=S)Nc1ccc(F)c([N+](=O)[O-])c1)C(Cl)(Cl)Cl)C(c1ccccc1)c1ccccc1 (stereo unspecified) as well?
RESULT: t

QUERY: What do we get for O=C1Nc2cc(Br)ccc2/C1=C1/Nc2ccccc2/C1=N\O ?
RESULT: f

QUERY: Next record, please: CCN1/C(=C/C(C)=O)Sc2ccc(OC)cc21
RESULT: t

QUERY: And the next one, O=C(Nc1ccc(Cl)cc1)c1ccccc1NCc1ccncc1 ?
RESULT: f

QUERY: Try this molecule too: O=C1Nc2ccccc2/C1=C\c1c(Cl)[nH]c2ccccc12
RESULT: t

QUERY: Likewise for CS(=O)c1ccc(-c2nc(-c3ccc(F)cc3)c(-c3ccncc3)[nH]2)cc1 (stereo unspecified) ?
RESULT: t

----------
Biological target: ACVRL1 (human) (UniProt P37023)
Sequence (P37023 whole entry, looked up): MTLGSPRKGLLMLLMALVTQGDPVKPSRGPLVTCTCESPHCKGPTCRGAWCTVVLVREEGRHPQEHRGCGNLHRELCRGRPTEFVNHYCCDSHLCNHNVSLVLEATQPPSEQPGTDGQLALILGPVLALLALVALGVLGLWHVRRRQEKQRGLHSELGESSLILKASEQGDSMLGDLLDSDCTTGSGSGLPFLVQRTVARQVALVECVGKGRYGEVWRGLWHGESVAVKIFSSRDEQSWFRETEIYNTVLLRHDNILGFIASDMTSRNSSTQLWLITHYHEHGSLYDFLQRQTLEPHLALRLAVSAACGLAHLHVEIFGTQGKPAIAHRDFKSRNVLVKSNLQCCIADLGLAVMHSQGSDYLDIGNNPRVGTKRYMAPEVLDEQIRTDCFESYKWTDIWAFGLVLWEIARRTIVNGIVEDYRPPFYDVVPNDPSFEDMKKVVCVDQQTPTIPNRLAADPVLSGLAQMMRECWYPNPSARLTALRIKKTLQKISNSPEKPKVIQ
Experiment: radiometric filter-binding kinase assay, Kinase HotSpot
Conditions: compound 0.5 µM; ATP 10 µM
Measured attribute: residual activity (%)
The answer is to be given in %; state only the numeric part.

In the examples that follow, each entry is paired with its recorded residual activity.
- Compound: "COc1ccc(-c2cnc3c(-c4ccsc4)cnn3c2)cc1"
  residual activity (%): 76.4
- Compound: "O=C(NC(NC(=S)Nc1ccc(F)c([N+](=O)[O-])c1)C(Cl)(Cl)Cl)C(c1ccccc1)c1ccccc1 (stereo not given)"
  residual activity (%): 107
- Compound: "Nc1n[nH]c2nnc(-c3c(-c4ccccc4)nn4ccccc34)cc12"
  residual activity (%): 106
- Compound: "NC(=O)c1ccc(N(C(N)=O)c2c(F)cccc2F)nc1-c1ccc(F)cc1F"
  residual activity (%): 99.3
- Compound: "O=c1cc(N2CCNCC2)oc2c(-c3ccccc3)cccc12"
  residual activity (%): 106

QUERY: Form: Entry = Cc1ccc(NC(=O)c2ccc(CN3CCN(C)CC3)cc2)cc1Nc1nc(-c2cccnc2)cs1 | System = ACVRL1 (human) (UniProt P37023) | residual activity = ____
RESULT: 103

QUERY: Queued: O=C1Nc2ccccc2/C1=C\c1c(Cl)[nH]c2ccccc12
RESULT: 99.8

QUERY: // same read-out, input: Clc1ccc(Nc2nnc(Cc3ccncc3)c3ccccc23)cc1
RESULT: 98.5

QUERY: Input Nc1nc(Nc2ccc(S(N)(=O)=O)cc2)nn1C(=O)c1c(F)cccc1F
RESULT: 88.5

QUERY: Another: CS(=O)c1ccc(-c2nc(-c3ccc(F)cc3)c(-c3ccncc3)[nH]2)cc1 (stereo not given)
RESULT: 97.7

----------
residual activity listing for selected compounds.
Target: DDR2 (human)
Test: radiometric filter-binding kinase assay, Kinase HotSpot
Details: compound 0.5 µM; ATP 10 µM
Please respond with the number in % and leave the unit unwritten.

- Compound: "O=C1Nc2cc(Br)ccc2/C1=C1/Nc2ccccc2/C1=N\\O"
  Recorded value: 69.7
- Compound: "COc1cc2nccc(Oc3ccc(NC(=S)NC(=O)c4ccccc4C)cc3)c2cc1OC"
  Recorded value: 54.1
- Compound: "CCCNC(=O)Nc1ccc(Oc2ncnc3cc(OC)c(OC)cc23)cc1Cl"
  Recorded value: 67.6
- Compound: "Nc1nc(Nc2ccc(S(N)(=O)=O)cc2)nn1C(=O)c1c(F)cccc1F"
  Recorded value: 113
- Compound: "Cc1cc2ncc(-c3ccccc3)nc2cc1C"
  Recorded value: 95.7

QUERY: Consider the compound shown here: Cc1ccc(NC(=O)c2ccc(CN3CCN(C)CC3)cc2)cc1Nc1nc(-c2cccnc2)cs1 What is its recorded residual activity?
RESULT: 36.4

QUERY: Same question for Nc1n[nH]c2nnc(-c3c(-c4ccccc4)nn4ccccc34)cc12 please.
RESULT: 101

QUERY: Same question for Oc1ccc(-c2nc(-c3ccc(F)cc3)c(-c3ccncc3)[nH]2)cc1 please.
RESULT: 86.3

QUERY: Repeat for the following compound: O=c1cc(N2CCNCC2)oc2c(-c3ccccc3)cccc12
RESULT: 95.5

QUERY: And what about the compound COc1cc2ncnc(Nc3ccc(F)c(Cl)c3)c2cc1OCCCN1CCOCC1 ?
RESULT: 117

The reported numbers originate from the kinase profiling compilation of Christmann-Franck et al. (2016).
